Provenance of the data: PubChem BioAssay (NCI)

test system: LOX IMVI melanoma; assay: NCI-60 one-dose screen, 48 h (100 = growth as untreated, 0 = no growth, -100 = all killed); conditions: 10 µM
The panel holds about 83,000 compounds, 20% with a hit somewhere; the sample as a whole holds those more often. Active and inactive are the calls of the source. The calls were made as follows: active = growth percent below 10; inactive = the rest.
readout.label: growth

Dear colleague, could you please provide growth for the molecules listed below?
1. Nc1ncnc2c1ncn2C1OC(CO)C2OC21 (stereo not drawn)
2. NC(CO)(CO)c1ccccc1
3. NC(=S)N/N=C/c1ccc(OC(=O)COc2ccc(Cl)cc2)cn1
4. CC(=O)N=c1ccc2nc3c(cc(N)c4ccccc43)oc-2c1
5. CCC(=O)Oc1c(C)cc(O)c2ccccc12
6. CCCCCCCCCCC(=O)CCCCCCCCCC

Key:
1. 99.2% (inactive)
2. 101% (inactive)
3. 23.8% (inactive)
4. -74.3% (active)
5. 75% (inactive)
6. 94.6% (inactive)

Below is a list of molecules. For each, state its recorded growth.
1. CC(C)OCC(CCl)OC(=O)Nc1ccccc1 (stereo not drawn)
2. C/C(=N\Nc1ccc([N+](=O)[O-])cc1[N+](=O)[O-])c1ccc(Br)cc1
3. O=C1NCC2CCCC1C2 (stereo not drawn)
4. CC(CO)(CO)C(=O)O
5. CSCCC(NC(=O)C(Cl)Cl)C(=O)O (stereo not drawn)

Key:
["97% (inactive)", "95.8% (inactive)", "103% (inactive)", "97.9% (inactive)", "98.4% (inactive)"]

For each entry beneath this line, provide reported growth.
1. O=C(c1ccccc1)c1ccc(-c2ccc(O)cc2)cc1
2. NNC(=O)CCCCl
3. Cc1cc2c3ccc(C)[n+](C)c3ccc2n1C
4. Nc1ncnc(Nc2ccccc2)n1

Key:
1: 73.4% (inactive); 2: 91.3% (inactive); 3: 43.9% (inactive); 4: 104% (inactive)

Give me growth for each of these molecules, listed below.
1. COc1ccc(/C=N/NC(=O)COCC(=O)N/N=C/c2ccc(OC)cc2)cc1
2. O=Cc1ccc(F)cc1
3. OCC1CCC(O)C(CO)N1 (stereo not drawn)
4. C=CCNC(=S)N/C=C(/C(=O)c1ccccc1)c1ccccc1
5. Cc1cc(C)cc(OCC(=O)O)c1
6. CC(=O)C1C(=O)C(=O)N(c2cccc([N+](=O)[O-])c2)C1=O (stereo not drawn)
7. Cc1ccc(/C=N/NC(N)=S)s1

Key:
1. 102% (inactive)
2. 101% (inactive)
3. 100% (inactive)
4. 98.1% (inactive)
5. 98.7% (inactive)
6. 105% (inactive)
7. 101% (inactive)

Exercise: Name the reported growth value associated with the molecule "O=Cc1ccc(Cl)c(Cl)c1"
Key: 95% (inactive)

====

test system: EKVX NSCLC; experiment: NCI-60 one-dose screen, 48 h (100 = growth as untreated, 0 = no growth, -100 = all killed); details: 10 µM unless noted
The panel holds about 83,000 compounds, 20% with a hit somewhere; the sample as a whole holds those more often. Activity calls are given as the source filed them. How the source made its calls: active means growth percent below 10; inactive means the rest.
readout.label: growth

In the examples that follow, each entry is paired with its recorded growth.
compound | growth
O=S(Cc1ccccc1)/C(=C/NC(=S)Nc1cc(Cl)ccc1Cl)c1ccccc1 (stereo unspecified) | 99.3% (inactive)
O=C(CCl)Oc1ccc([N+](=O)[O-])cc1 | 112% (inactive)
CCOS(=O)(=O)c1ccc([N+](=O)[O-])cc1 | 110% (inactive)
OCC1CCC(O)C(CO)N1 (stereo unspecified) | 92.3% (inactive)
N#C/C(=C\NC(=S)N=Nc1c(O)[nH]c2ccccc12)c1nc2ccccc2s1 | 99.3% (inactive)

// switching to the query compound
Exercise: Give its growth value. Item: "O=C(O)Cc1cccc2ccccc12"
Key: 101% (inactive)
